Just for reference, the supplement of paper PMC5998384 is where these values come from.

Record form. Attribute: thermal stability score. Fill in for each entry.
# Tested on: HeLa Kyoto;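 further: synchronized HeLa Kyoto cells, proteins quantified by TMT10plex mass spectrometry, three biological replicates, mitosis taken 0.5 h after nocodazole release, G1/S directly after double thymidine block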
# run description: thermal stability score vs G1/S (z-score of summed log2 fold changes over temperatures); higher = more thermally stable than in G1/S
# condition context: cell cycle stage: early G1 (4.5 h after nocodazole release)
One number for each entry.

| sequence code | result |
| --- | --- |
| MLETLRERLLSVQQDFTSGLKTLSDKSREAKVKSKPRTVPFLPKYSAGLELLSRYEDTWAALHRRAKDCASAGELVDSEVVMLSAHWEKKKTSLVELQEQLQQLPALIADLESMTANLTHLEASFEEVENNLLHLEDLCGQCELERCKHMQSQQLENYKKNKRKELETFKAELDAEHAQKVLEMEHTQQMKLKERQKFFEEAFQQDMEQYLSTGYLQIAERREPIGSMSSMEVNVDMLEQMDLMDISDQEALDVFLNSGGEENTVLSPALGPESSTCQNEITLQVPNPSELRAKPPSSSSTCTDSATRDISEGGESPVVQSDEEEVQVDTALATSHTDREATPDGGEDSDS [DTNBP1] | -0.457 |
| MDMKRRIHLELRNRTPAAVRELVLDNCKSNDGKIEGLTAEFVNLEFLSLINVGLISVSNLPKLPKLKKLELSENRIFGGLDMLAEKLPNLTHLNLSGNKLKDISTLEPLKKLECLKSLDLFNCEVTNLNDYRESVFKLLPQLTYLDGYDREDQEAPDSDAEVDGVDEEEEDEEGEDEEDEDDEDGEEEEFDEEDDEDEDVEGDEDDDEVSEEEEEFGLDEEDEDEDEDEEEEEGGKGEKRKRETDDEGEDD [ANP32B] | 2.33 |

// switching to the query sequence
Quick one: thermal stability score for MDAPGALAQTAAPGPGRKELKIVIVGDGGCGKTSLLMVYSQGSFPEHYAPSVFEKYTASVTVGSKEVTLNLYDTAGQEDYDRLRPLSYQNTHLVLICYDVMNPTSYDNVLIKWFPEVTHFCRGIPMVLIGCKTDLRKDKEQLRKLRAAQLEPITYMQGLSACEQIRAALYLECSAKFRENVEDVFREAAKVALSALKKAQRQKKRRLCLLL [RHOF] ?
0.493
